target: C-C chemokine receptor type 2 (Homo sapiens, UniProt P41597); assay: Displacement of [125]MCP1 from CCR2 in human PBMCs
Sequence (P41597 whole entry): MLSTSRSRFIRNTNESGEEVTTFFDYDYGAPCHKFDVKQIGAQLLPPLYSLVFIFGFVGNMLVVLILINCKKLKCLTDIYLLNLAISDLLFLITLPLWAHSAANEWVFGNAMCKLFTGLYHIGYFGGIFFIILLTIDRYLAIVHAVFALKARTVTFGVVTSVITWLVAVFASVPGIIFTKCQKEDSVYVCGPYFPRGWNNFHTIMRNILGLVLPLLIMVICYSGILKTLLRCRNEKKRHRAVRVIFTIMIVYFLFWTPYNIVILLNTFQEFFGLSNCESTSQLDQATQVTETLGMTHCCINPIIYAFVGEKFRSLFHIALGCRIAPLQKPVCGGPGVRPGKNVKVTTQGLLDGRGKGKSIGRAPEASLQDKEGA
QUANTITY: IC50 (µM)

{"columns": ["INPUT SMILES", "IC50 / µM"],
 "data": [
  ["Cc1ccc(CNC[C@H](NC(=O)CNC(=O)c2cccc(C(F)(F)F)c2)C(=O)NC2CCC2)c(C)c1", 0.097],
  ["Cc1ccc(CNCC[C@H](NC(=O)CNC(=O)c2cccc(C(F)(F)F)c2)C(=O)NC(C)(C)C)c(C)c1", 0.77],
  ["Cc1ccc(CNC[C@H](NC(=O)CNC(=O)c2cc(NCc3ccccc3)cc(C(F)(F)F)c2)C(=O)NC(C)(C)C)c(C)c1", 0.11]
]}

P. CCNc1cc(C(=O)NCC(=O)N[C@@H](CNCc2ccc(C)cc2C)C(=O)NC(C)(C)C)cc(C(F)(F)F)c1
Q. Cc1ccc(CNC[C@H](NC(=O)CNC(=O)c2cccc(C(F)(F)F)c2)C(=O)NC2CC2)c(C)c1
R. CCc1ccc(CNC[C@H](NC(=O)CNC(=O)c2cccc(C(F)(F)F)c2)C(=O)NC(C)(C)C)cc1
S. COC(=O)[C@@H](CNCc1ccc(C)cc1C)NC(=O)CNC(=O)c1cccc(C(F)(F)F)c1
T. Cc1ccc(CNC[C@H](NC(=O)CNC(=O)c2cccc(C(F)(F)F)c2)C(=O)NCC2CC2)c(C)c1
Please put the entries in order of rising IC50. Please write the labels in the order that was asked for.
P, T, Q, R, S
(P: 0.019 µM, T: 0.06 µM, Q: 0.088 µM, R: 0.53 µM, S: 1 µM)

----------
molecular target: C-C chemokine receptor type 3 (Homo sapiens, UniProt P51677); test: Displacement of [125I]eotaxin from human CCR3 expressed in CHO cells
Sequence (P51677 whole entry): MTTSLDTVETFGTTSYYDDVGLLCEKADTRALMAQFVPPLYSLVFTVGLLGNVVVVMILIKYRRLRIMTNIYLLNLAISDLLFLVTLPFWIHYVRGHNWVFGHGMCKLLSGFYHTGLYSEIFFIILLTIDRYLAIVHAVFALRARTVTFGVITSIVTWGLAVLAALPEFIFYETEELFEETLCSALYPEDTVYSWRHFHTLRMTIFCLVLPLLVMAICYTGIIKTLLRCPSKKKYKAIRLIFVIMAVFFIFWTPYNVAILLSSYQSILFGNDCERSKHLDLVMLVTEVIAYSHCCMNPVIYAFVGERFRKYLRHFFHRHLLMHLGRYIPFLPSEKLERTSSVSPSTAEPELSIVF
QUANTITY: IC50

# example entries with known answers
{"columns": ["INPUT SMILES", "IC50"],
 "data": [
  ["Cc1ccc(CNC[C@H](NC(=O)CNC(=O)c2cc(C(F)(F)F)ccc2NC(=O)NC(C)C)C(=O)NC(C)(C)C)c(C)c1", "10 µM"],
  ["Cc1ccc(CNC[C@H](NC(=O)CNC(=O)c2cc(C(F)(F)F)ccc2NCc2ccccc2)C(=O)NC(C)(C)C)c(C)c1", "> 10 µM"],
  ["CCNc1cc(C(=O)NCC(=O)N[C@@H](CNCc2ccc(C)cc2C)C(=O)NC(C)(C)C)cc(C(F)(F)F)c1", "> 10 µM"]
]}

Look up IC50 for this molecule: Cc1ccc(CNC[C@H](NC(=O)CNC(=O)c2cccc(C(F)(F)F)c2)C(=O)NC(C)(C)C)c(C)c1
> 10 µM

Look up IC50 for this molecule: Cc1ccc(CNC[C@H](NC(=O)CNC(=O)c2cccc(C(F)(F)F)c2)C(N)=O)c(C)c1
> 10 µM

Look up IC50 for this molecule: Cc1ccc(CNC[C@H](NC(=O)CNC(=O)c2cc(C(F)(F)F)ccc2N)C(=O)NC(C)(C)C)c(C)c1
0.75 µM

Look up IC50 for this molecule: Cc1ccc(CNC[C@H](NC(=O)CNC(=O)c2cc(N)cc(C(F)(F)F)c2)C(=O)NC(C)(C)C)c(C)c1
> 10 µM

Look up IC50 for this molecule: CCNc1ccc(C(F)(F)F)cc1C(=O)NCC(=O)N[C@@H](CNCc1ccc(C)cc1C)C(=O)NC(C)(C)C
> 10 µM

----------
molecular target: C-C chemokine receptor type 2 (Homo sapiens, UniProt P41597); experiment: Displacement of [125]MCP1 from CCR2 in human PBMCs at 1 uM
Sequence (P41597 whole entry, looked up): as the sequence (P41597 whole entry) above
QUANTITY: Activity (%)

# example entries with known answers
{"columns": ["INPUT SMILES", "Activity / %"],
 "data": [
  ["Cc1ccc(CNC[C@H](NC(=O)CNC(=O)c2cc(NC(=O)C3CCCCC3)cc(C(F)(F)F)c2)C(=O)NC(C)(C)C)c(C)c1", 25],
  ["COc1ccc(CNC[C@H](NC(=O)CNC(=O)c2cccc(C(F)(F)F)c2)C(=O)NC(C)(C)C)c(OC)c1", 37]
]}

A. Cc1ccc(CNC[C@H](NC(=O)CNC(=O)c2cccc(C(F)(F)F)c2)C(=O)NC(C)(C)C)cc1F
B. Cc1ccc(CN(C)C[C@H](NC(=O)CNC(=O)c2cccc(C(F)(F)F)c2)C(=O)NC(C)(C)C)c(C)c1
API: POST /compare with A and B ; response names the item with higher Activity. Give the label under which the chosen entry appears.
A

A. CC(C)(C)NC(=O)[C@H](CNCc1ccc(-c2ccccc2)cc1)NC(=O)CNC(=O)c1cccc(C(F)(F)F)c1
B. COC(=O)c1ccc(CNC[C@H](NC(=O)CNC(=O)c2cccc(C(F)(F)F)c2)C(=O)NC(C)(C)C)cc1
// compare measured Activity between A and B ; output the lower one Give the label under which the chosen entry appears.
B

----------
biological target: C-C chemokine receptor type 2 (Homo sapiens); assay: Displacement of [125]MCP1 from CCR2 in human PBMCs
QUANTITY: IC50 (µM)

# example entries with known answers
{"columns": ["INPUT SMILES", "SYSTEM NAME", "UNIT TEXT", "IC50"],
 "data": [
  ["Cc1ccc(CNC[C@H](NC(=O)CNC(=O)c2cccc(C(F)(F)F)c2)C(=O)N(C)C)c(C)c1", "C-C chemokine receptor type 2 (Homo sapiens)", "µM", 0.25],
  ["Cc1ccc(CNC[C@H](NC(=O)CNC(=O)c2cccc(C(F)(F)F)c2)C(=O)NC2CCCCC2)c(C)c1", "C-C chemokine receptor type 2 (Homo sapiens)", "µM", 0.15]
]}

1. Cc1ccc(CNC[C@@H](CO)NC(=O)CNC(=O)c2cccc(C(F)(F)F)c2)c(C)c1
2. Cc1ccc(CNC[C@H](NC(=O)CNC(=O)c2cc(C(F)(F)F)ccc2NC(=O)C2CCCCC2)C(=O)NC(C)(C)C)c(C)c1
// compare measured IC50 between 1 and 2 ; output the lower one Give the label under which the chosen entry appears.
2
(2: 0.09 µM, 1: 0.32 µM)

----------
biological target: C-C chemokine receptor type 2 (Homo sapiens, UniProt P41597); assay: Displacement of [125]MCP1 from CCR2 in human PBMCs
QUANTITY: IC50 (nM)

# example entries with known answers
{"columns": ["INPUT SMILES", "RECORDED NUMBER"],
 "data": [
  ["COc1ccc(CNC[C@H](NC(=O)CNC(=O)c2cccc(C(F)(F)F)c2)C(=O)NC(C)(C)C)c(C)c1C", 690],
  ["Cc1ccc(CNC[C@H](NC(=O)CNC(=O)c2cccc(C(F)(F)F)c2)C(N)=O)c(C)c1", 66],
  ["Cc1ccc(CNC[C@H](NC(=O)CNC(=O)c2cccc(C(F)(F)F)c2)C(=O)N2CCCC2)c(C)c1", 260],
  ["Cc1ccc(CNC[C@H](NC(=O)CNC(=O)c2cccc(C(F)(F)F)c2)C(=O)NC(C)(C)C)cc1", 750],
  ["Cc1ccc(CNC[C@H](NC(=O)CNC(=O)c2cc(C(F)(F)F)ccc2NCc2ccccc2)C(=O)NC(C)(C)C)c(C)c1", 19]
]}

P. Cc1ccc(CNC[C@H](NC(=O)CNC(=O)c2cc(C(F)(F)F)ccc2N)C(=O)NC(C)(C)C)c(C)c1
Q. CCOC(=O)Nc1cc(C(=O)NCC(=O)N[C@@H](CNCc2ccc(C)cc2C)C(=O)NC(C)(C)C)cc(C(F)(F)F)c1
API: POST /compare with P and Q ; response names the item with higher IC50. Give the label under which the chosen entry appears.
Q

a. COc1cc(C)c(CNC[C@H](NC(=O)CNC(=O)c2cccc(C(F)(F)F)c2)C(=O)NC(C)(C)C)cc1C
b. CCNC(=O)[C@@H](NC(=O)CNC(=O)c1cccc(C(F)(F)F)c1)[C@@H](C)NCc1ccc(C)cc1C
API: POST /compare with a and b ; response names the item with higher IC50. Give the label under which the chosen entry appears.
a
(a: 1300 nM, b: 130 nM)

A. Cc1cc(N(C)C)ccc1CNC[C@H](NC(=O)CNC(=O)c1cccc(C(F)(F)F)c1)C(=O)NC(C)(C)C
B. COC(=O)[C@@H](CNC(=O)CNC(=O)c1cccc(C(F)(F)F)c1)NCc1ccc(C)cc1C
C. Cc1ccc(CNC[C@H](NC(=O)CNC(=O)c2cccc(C(F)(F)F)c2)C(=O)NC(C)(C)C)cc1[N+](=O)[O-]
D. Cc1ccc(CNC[C@H](NC(=O)CNC(=O)c2cccc(C(F)(F)F)c2)C(=O)NCC(F)(F)F)c(C)c1
Arrange by IC50, high to low. Please write the labels in the order that was asked for.
B, C, D, A
(B: 15000 nM, C: 670 nM, D: 55 nM, A: 36 nM)

----------
biological target: C-C chemokine receptor type 2 (Homo sapiens); assay: Displacement of [125]MCP1 from CCR2 in human PBMCs
pIC50: −log10 of the molar value.
QUANTITY: pIC50

# example entries with known answers
{"columns": ["INPUT SMILES", "QUANTITY", "RECORDED NUMBER"],
 "data": [
  ["CCc1ccccc1CNC[C@H](NC(=O)CNC(=O)c1cccc(C(F)(F)F)c1)C(=O)NC(C)(C)C", "pIC50", 6.42],
  ["Cc1cc(Br)ccc1CNC[C@H](NC(=O)CNC(=O)c1cccc(C(F)(F)F)c1)C(=O)NC(C)(C)C", "pIC50", 6.80],
  ["Cc1ccc(CNC[C@H](NC(=O)CNC(=O)c2cccc(C(F)(F)F)c2)C(=O)NCc2ccccc2)c(C)c1", "pIC50", 5.15],
  ["CCNc1ccc(C(F)(F)F)cc1C(=O)NCC(=O)N[C@@H](CNCc1ccc(C)cc1C)C(=O)NC(C)(C)C", "pIC50", 7.89]
]}

P. Cc1ccc(CNC[C@H](NC(=O)CNC(=O)c2cccc(SC(F)(F)F)c2)C(=O)NC(C)(C)C)c(C)c1
Q. Cc1ccc(CNC[C@H](NC(=O)CNC(=O)c2cc(C(F)(F)F)ccc2NC(=O)NC(C)C)C(=O)NC(C)(C)C)c(C)c1
R. Cc1cc(C#N)ccc1CNC[C@H](NC(=O)CNC(=O)c1cccc(C(F)(F)F)c1)C(=O)NC(C)(C)C
S. Cc1ccc(CNC[C@H](CO)NC(=O)CNC(=O)c2cccc(C(F)(F)F)c2)c(C)c1
Please put the entries in order of rising pIC50. Please write the labels in the order that was asked for.
S, R, P, Q
(S: 5.66, R: 6.05, P: 6.82, Q: 7.82)

These entries and their values trace back to ChEMBL document CHEMBL1139795.
